A collection of molecules and their measured T/C
Tested on: L1210 leukemia ip in BDF1 mice, survival T/C
testName: NCI In Vivo Anticancer Drug Screen. Data for tumor model L1210 Leukemia (intraperitoneal) in B6D2F1 (BDF1) mice
runConditions: endpoint: mean survival time; dose: 200.0 mg/kg/injection; schedule: Q04DX003 (ip); vehicle: saline with Tween-80; higher = longer survival
Toxic doses and inconclusive results are not listed.
assayReadout: T/C

molecule | assayReadout | result
COc1ccc(/C=C/C(=O)c2cc(O)cc(OC)c2)cc1 | T/C | 108 % of control
CCOC(=O)C(Nc1ccccc1)C(=O)OCC | T/C | 97 % of control
O=C(/C=C/c1ccc(Br)cc1)c1ccc(Cl)cc1 | T/C | 91 % of control
COc1cc(Br)c(/C=C/C(=O)O)cc1OC | T/C | 93 % of control
COC1/C=C/O[C@@]2(C)Oc3c(C)c(O)c4c(O)c(cc(O)c4c3C2=O)NC(=O)/C(C)=C\C=C\[C@H](C)C(O)[C@@H](C)[C@@H](O)[C@@H](C)[C@H](OC(C)=O)[C@@H]1C (stereo partly specified) | T/C | 87 % of control
c1cc2c3c(c1)ncn3CCC2 | T/C | 100 % of control
Cc1cc(C)c(C(Cl)(Cl)Cl)c(C)c1Cl | T/C | 108 % of control
O=C1/C(=C/c2cccnc2)CCc2ccccc21 | T/C | 97 % of control
CN(C)N=Nc1ccc([N+](=O)[O-])cc1C(N)=O | T/C | 105 % of control
O=C(CBr)N1CCC2(CC1)SSC1(CCN(C(=O)CBr)CC1)S2 | T/C | 105 % of control
CCn1nnnc1-c1ccc(Cl)cc1 | T/C | 98 % of control
